This section presents molecules with their documented Concentration causing inhibition values.
- systemName: Hypoxia-inducible factor 1-alpha (Homo sapiens)
- Sequence (Q16665 whole entry, looked up): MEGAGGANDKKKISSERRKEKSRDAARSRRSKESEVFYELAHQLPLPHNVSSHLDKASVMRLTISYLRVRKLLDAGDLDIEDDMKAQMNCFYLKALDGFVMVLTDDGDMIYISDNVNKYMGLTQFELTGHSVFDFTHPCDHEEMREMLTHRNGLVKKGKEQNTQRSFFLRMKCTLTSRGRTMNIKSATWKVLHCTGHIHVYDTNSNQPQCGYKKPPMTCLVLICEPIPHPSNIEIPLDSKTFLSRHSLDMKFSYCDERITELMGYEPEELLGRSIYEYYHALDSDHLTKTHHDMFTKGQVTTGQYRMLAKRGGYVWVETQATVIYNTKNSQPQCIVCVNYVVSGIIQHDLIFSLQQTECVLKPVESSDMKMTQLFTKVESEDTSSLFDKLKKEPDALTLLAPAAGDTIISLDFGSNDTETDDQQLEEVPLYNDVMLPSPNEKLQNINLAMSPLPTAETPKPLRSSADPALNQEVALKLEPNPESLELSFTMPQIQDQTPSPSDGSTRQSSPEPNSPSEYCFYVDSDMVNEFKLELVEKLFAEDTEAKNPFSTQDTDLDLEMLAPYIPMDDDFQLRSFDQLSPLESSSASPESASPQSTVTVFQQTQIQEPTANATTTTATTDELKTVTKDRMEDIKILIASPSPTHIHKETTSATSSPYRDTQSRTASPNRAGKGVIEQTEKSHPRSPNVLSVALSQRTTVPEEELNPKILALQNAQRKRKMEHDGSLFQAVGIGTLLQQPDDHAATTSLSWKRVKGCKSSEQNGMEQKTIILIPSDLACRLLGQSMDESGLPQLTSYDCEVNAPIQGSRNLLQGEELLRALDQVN
- testDetails: Inhibition of hypoxia-induced HIF1alpha transcriptional activity in human LNCAP cells assessed as compound concentration causing inhibition of transcriptional activity measured after 18 hrs by hypoxia response element-driven dual luciferase reporter gene assay relative to hypoxia control
- Format: cell-based

{"molecule": "O=C1C2=C(C3=NCCc4c[nH]c1c43)[C@]1(C=C(Br)[C@H](O)C(Br)=C1)CCN2", "Concentration causing inhibition, µM": 1}
{"molecule": "O=C1C(NC2Cc3cc(Br)c(O)cc3S2)=CC2=NCCc3c[nH]c1c32 (stereo unspecified) [MAKALUVAMINE F]", "Concentration causing inhibition, µM": 0.1}
{"molecule": "O=C1C=C2S[C@H]3C[C@]2(C=C1Br)C1=C(N3)C(=O)c2[nH]cc3c2C1=NCC3 [(+)-DISCORHABDIN B]", "Concentration causing inhibition, µM": 1}
{"molecule": "O=C1C2=C3C4=[N+](CCc5c[nH]c1c54)[C@@H]1C(=O)C=C4S[C@@H](C[C@@]43[C@H]1O)N2", "Concentration causing inhibition, µM": 1}
{"molecule": "O=C1C=C(S[C@H]2[C@H]3C(=O)C=C4S[C@H]5C[C@]42C2=C(N5)C(=O)c4[nH]cc5c4C2=[N+]3CC5)[C@]2(C=C1Br)CCNC1=C2C2=NCCc3c[nH]c(c32)C1=O", "Concentration causing inhibition, µM": 1}
{"molecule": "Cn1c(C[C@H](N)C(=O)O)cnc1S[C@H]1[C@H]2C(=O)C=C3S[C@H]4C[C@]31C1=C(N4)C(=O)c3[nH]cc4c3C1=[N+]2CC4", "Concentration causing inhibition, µM": 0.1}

Values compiled from ChEMBL document CHEMBL3853286.
